The origin of these recorded values is the DeepSol protein solubility set.

procedure-details: soluble on expression in E. coli; label from the status in PepcDB or PDB records
measured-metric: soluble on expression in E. coli

Here is how some sequences turned out for soluble on expression in E. coli.
query_sequence=MGSLRLTERPHVRKARLWVKLSDGKEGWVRCDLCQRRCVIAPGKYGACGVRKNIGGELYTLVYGLLSASNIDPIEKKPLLHFYPGSTVLSISTVGCNFFCQFCQNFEISQSRLEKGLYGVYRTPEEVVRLALVYGADGITYTYNEPTIFFETVYDVAKEAKKHGLFNTMVTNGYMTPEAVDELGSLIDAATVDFKGGGDPEFYRKIMFVPDPEPIYEAILAMKDKGWWIEITNLVVPILGDKPEYVRRMARWIVENLGPEVPFHLLRFHPDYKLRHVPHTPVKTLEKLARIAMEEGLKHVYIGNVWGHPLEDTYCPKCGYKVVDREGFAIVEWRLTSDFRCPRCGYKLNFRGEYTPRNINYPMPVM result="not soluble"
query_sequence=MGSDKIHHHHHHVQYLDKLVSGLAVELHVPEGDYEGNYKTHVDEIGKTRLSVYAPHYQGMIIPLQEGTLVEVTFWDDVASYSFMSSVLQRVATPIPMFVLKMPDSIRRVQRRNYVRVSASFPITYQVVEREGLGDLLKGNMLDLSGGGMRFQAKVKLDKGSILYANLELPCGIIGTPGRVCRVEPIEDTKYFSVSVDFYQISERDRDRIIRCVFDIQRDLRKKGLI result="not soluble"
query_sequence=MISNNTRRVYRISFSFFEQYCLEHNLQSLPADPRSIISFIGHQKELLQASTGMQLSKQTLTTRIAAIRFYHIQAGFPTPTEHPQVIRVMRGLSRNHHRLVQDYDQQPLEHHHHHH result="not soluble"
query_sequence=MSSLGNQSEKNSNNKFSDNVPLAQHEIWKEKYESLVTEHENLVKEHETLIKTLELIEKHEITLEDLVKKKQREALVGKEEIEKFDKEIGERKKMQEMLDKDLEYLKSCEETVMNGMSSGPSGARVADKRNVNKFESQEGNFKCFLICV result="not soluble"
query_sequence=MGCLATPVRTEVLKALEYSQRICALRSCSRFIRSPRAMFKRQHTDADVLEHPVSASAPATWSLIGEHTDHAGGVVLMSVAQLRTHVEATTRADDIVSVDYYIADPEMPVQQSAISLSDVFEWQNSLSGDHEPLESP result="not soluble"
query_sequence=SYYHHHHHHDYDIPTTENLYFQGAMGSFGSKDAAADGKPLVVTTIGMIADAVKNIAQGDVHLKGLMGPGVDPHLYTATAGDVEWLGNADLILYNGLHLETKMGEVFSKLRGSRLVVAVSETIPVSQRLSLEEAEFDPHVWFDVKLWSYSVKAVYESLCKLLPGKTREFTQRYQAYQQQLDKLDAYVRRKAQSLPAERRVLVTAHDAFGYFSRAYGFEVKGLQGVSTASEASAHDMQELAAFIAQRKLPAIFIESSIPHKNVEALRDAVQARGHVVQIGGELFSDAMGDAGTSEGTYVGMVTHNIDTIVAALAR result=soluble
query_sequence=MIVETMTYQEIADEFKKDWERSIRHKITDCFGMANKYRRYILKEGKTDKWIRFKPIEFTSPRGNNCVIQFVSKGWADYKRNGLIFVLYMYYYKSEGLYAVMIAGDNFDEFSFYTPHLFDRYRERKLKDISKPKLQTMFDFFKTNATSRFNRVNNDKYANSIFSVCPNGVTLGSEISDKIIENRTYITFEMLKSDQVQDEEKLGTALKAYLDKQL result="not soluble"
query_sequence=MIIEHNGNIHKIARMTGNKNNFLEIILSDIHENIKIKPLTIKVKGENVINILPEEVSFYVKQGVDLIYEKYKRKFFISEISFCQSDSRPSSIYAFLTFHLLEDIIKNESPSNYT result="not soluble"

Recorded soluble on expression in E. coli (sequence `MSHYQCAVCSSIDANPNSLAVNYQCLADSSVVGEFHVLPRHQGYTDLLHGGIASSLLDGAMTHCLLFRDIQALTAQLDVRYHAPIELDEHVTITAHCEGERRGIYQLVAQLLVNNEVRVTAKGKFIRPKLEHHHHHH` ): soluble

Recorded soluble on expression in E. coli (sequence `MGSDKIHHHHHHMPFKAKDQQGNIVLATDFKSVLEIRKNFPKGSLFCPFCQTLMFPRKRQNTSLHFVHTHPCTTVMEHHPESPEHLQGKLEISKYFQEVYKGMIDAQEAFIEIEHPISEAGKNGRIADVAVVFSTGYRIIGECQLAKIEAADIYQRTQDYYSISADVLWFLGGAADTPENRQAAVDLDVFAGTINFTYST` ): not soluble

Recorded soluble on expression in E. coli (sequence `MPSAHSVKLRPLEREDLRYVHQLDNNASVMRYWFEEPYEAFVELSDLYDKHIHDQSERRFVVECDGEKAGLVELVEINHVHRRAEFQIIISPEYQGKGLATRAAKLAMDYGFTVLNLYKLYLIVDKENEKAIHIYRKLGFSVEGELMHEFFINGQYRNAIRMCIFQHQYLAEHKTPGQTLLKPTAQ` ): soluble

Recorded soluble on expression in E. coli (sequence `GGQFIAFLRNITERKRAEALHRMGQDILLALNENEDMKEAIQRVLGLLRSATGVDAVGIRLQDGDDFPYFYQEGFPPDFLQKEDSIVARNKDGGVCRDSCGNVCLECTCGMVISGSTDHANPLFTPGGSAWTNDSFPYLEVPADQDPRTTPRDECIHQGYASIALIPIRAKGRIVGLLQLNDRRKGRFTREGIEALEDIAKNIGEAMLRKQAEEKLVASERFLRMLTNQLPGMVGYWDRD` ): not soluble

Recorded soluble on expression in E. coli (sequence `MPRVGIITSDFKFYHDVIKQLRLWKIPFVSLDLKGNIPDDVVVILSSIRDDIDLPDQVKAQDGLDGIRRAIPRLLNKTMFKDLTIGIDPGPKPGIAVFGDDVLLEAFECPTVFSVRKFVDSISMSYSYENITIKIGNGDRPNRDIIMNRLSDVDISIEVVNEKNTSTPHKIHDNALSAARIAQINGLYPIKRIPVKFSRKNVYEKEFVTLKNVIENAAGTEGRSSNST` ): not soluble

Recorded soluble on expression in E. coli (sequence `MLETRATTAKQLVQAPEQPAPQPEVAPPTTEQPAPAPAPGTTPGTENFNTPNATPETTEPRVLVSEVLVRPQSGQLTPELETQVYNVIRTQPGRTTTRSQLQEDINAIFGTGFFSNVQASPEDTPLGVRVSFIVQPNPVLSKVEIQANPGTNVPSVLPQATADEIFRAQYGKILNLRDLQEGIKELTKRYQDQGYVLANVVGAPQVSENGVVTLQVAEGVVENISVRFRNKEGQDVNEQGQPIRGRTQDYIITREVELKPGQVFNRNTVQKDLQRVFGTGLFEDVNVSLDPGTDPTKVNVVVNVVERSLEHHHHHH` ): soluble
